molecular target: human PTP1B (Homo sapiens, UniProt P18031); construct: human PTP1B (amino acid residues 1-321); made in house; host or cells: E. coli BL21(DE3); assay: PTP1B assay, pNPP hydrolysis, assayed exactly as for PTP1; assay type: biochemical; conditions: Conc 100 uM, Table 2, read-out: PTP1B Inhib PTP1B. % Inhib
Sequence (P18031 1-321): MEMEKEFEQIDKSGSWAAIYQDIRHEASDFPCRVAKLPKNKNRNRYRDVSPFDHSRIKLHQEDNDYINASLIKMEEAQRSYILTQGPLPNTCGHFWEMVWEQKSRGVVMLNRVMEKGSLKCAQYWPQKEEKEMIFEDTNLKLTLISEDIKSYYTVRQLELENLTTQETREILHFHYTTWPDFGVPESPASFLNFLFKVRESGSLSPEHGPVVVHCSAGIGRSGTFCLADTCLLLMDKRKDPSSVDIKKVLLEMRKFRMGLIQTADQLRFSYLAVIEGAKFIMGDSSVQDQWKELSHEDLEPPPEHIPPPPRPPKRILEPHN
VALUE KIND: inhibition at 100 µM (%)

# MOLECULE, OBSERVED MEASUREMENT
measured = [
    ("CCCCCNC(=O)C(Cc1ccc(OC(COO)COO)cc1)NC(=O)C(Cc1ccccc1)NC(=O)NC(C)(C)C (centres unmarked)", 86),
    ("CCCCCNC(=O)C(Cc1ccc(OCCOO)c(COO)c1)NC(=O)C(Cc1ccccc1)NC(=O)CCC(=O)O (centres unmarked)", 98),
    ("CCCCCNC(=O)C(Cc1ccc(OCCOO)c(COO)c1)NC(=O)C(Cc1ccccc1)NC(=O)CCCO (centres unmarked)", 96),
    ("CCCCCNC(=O)C(Cc1ccc(OC(COO)COO)cc1)NC(=O)C(Cc1ccccc1)NC(=O)CCNC(=O)OC(C)(C)C (centres unmarked)", 93),
    ("CCCCCNC(=O)C(Cc1ccc(OC(COO)COO)cc1)NC(=O)Nc1cccc(C(=O)O)c1 (centres unmarked)", 94),
    ("CCCCCNC(=O)C(Cc1ccc(OCCOO)c(COO)c1)NC(=O)C(Cc1ccccc1)NC(=O)CCNC(=O)OC(C)(C)C (centres unmarked)", 96),
    ("CCCCCNC(=O)[C@H](Cc1ccc(OCC(=O)NO)c(C(=O)O)c1)NC(=O)[C@H](Cc1ccccc1)NC(=O)OC(C)(C)C", 30),
    ("CCCCCNC(=O)C(Cc1ccc(OCCOO)c(COO)c1)NC(=O)C(Cc1ccccc1)NC(=O)Cc1ccc(OC)cc1 (centres unmarked)", 97),
]

// provenance: patent US6410585B1
